test system: Persicaria longiseta; test: Pre-emergence herbicidal activity against Persicaria longiseta at 400 g a.i./10a measured after 3 weeks by soil application test; assay type: functional
# reported Activity; entries follow
The response must be a number in % with no trailing unit.

Example entries begin here.
[
  {
    "smiles.text": "Cc1nc(NCc2cccc(Cl)c2)nc(C(F)F)n1",
    "target.of.assay": "Persicaria longiseta",
    "quantity.unit": "%",
    "Activity": 5
  },
  {
    "smiles.text": "Cc1nc(NCc2ccc(Br)cc2)nc(C(F)F)n1",
    "target.of.assay": "Persicaria longiseta",
    "quantity.unit": "%",
    "Activity": 6
  },
  {
    "smiles.text": "Cc1ccc(CNc2nc(C)nc(C(F)F)n2)cc1",
    "target.of.assay": "Persicaria longiseta",
    "quantity.unit": "%",
    "Activity": 5
  },
  {
    "smiles.text": "Cc1nc(CF)nc(NCc2ccccc2)n1",
    "target.of.assay": "Persicaria longiseta",
    "quantity.unit": "%",
    "Activity": 2
  },
  {
    "smiles.text": "Cc1nc(CF)nc(NCc2ccc(Br)cc2)n1",
    "target.of.assay": "Persicaria longiseta",
    "quantity.unit": "%",
    "Activity": 5
  }
]

Q: Entry under review: Cc1nc(NCc2ccc([N+](=O)[O-])cc2)nc(C(F)F)n1 . Reported Activity?
A: 5

Q: Entry under review: Cc1nc(NCc2ccccc2)nc(C(F)F)n1 . Reported Activity?
A: 6

Q: Entry under review: Cc1nc(CF)nc(NCc2ccc(Cl)cc2)n1 . Reported Activity?
A: 4

Q: Entry under review: Cc1nc(NCc2ccc(Cl)cc2)nc(C(F)F)n1 . Reported Activity?
A: 6

====

test system: Amaranthus blitum subsp. oleraceus; experiment: Pre-emergence herbicidal activity against Amaranthus blitum subsp. Oleraceus at 400 g a.i./10a measured after 3 weeks by soil application test; assay type: functional
# reported Activity; entries follow
The response must be a number in % with no trailing unit.

Example entries begin here.
[
  {
    "smiles.text": "Cc1nc(NCc2ccc(Cl)cc2)nc(C(F)(F)F)n1",
    "Activity / %": 6
  },
  {
    "smiles.text": "Cc1nc(NCc2ccc(Br)cc2)nc(C(F)F)n1",
    "Activity / %": 5
  },
  {
    "smiles.text": "Cc1nc(NCc2ccccc2)nc(C(F)F)n1",
    "Activity / %": 4
  }
]

Q: Entry under review: Cc1nc(NCc2ccccc2)nc(C(F)(F)F)n1 . Reported Activity?
A: 4

Q: Entry under review: Cc1nc(CF)nc(NCc2ccc(Cl)cc2)n1 . Reported Activity?
A: 4

Q: Entry under review: Cc1nc(NCc2ccc(Cl)cc2)nc(C(F)F)n1 . Reported Activity?
A: 5

====

tested on: Echinochloa crus-galli; assay: Pre-emergence herbicidal activity against Echinochloa crus-galli var. crus-galli at 400 g a.i./10a measured after 3 weeks by soil application test; type: functional
observable: Activity (%)
The response must be a number in % with no trailing unit.

Example entries begin here.
[
  {
    "smiles.text": "Cc1nc(CF)nc(NCc2ccc(Br)cc2)n1",
    "Activity / %": 4
  },
  {
    "smiles.text": "Cc1nc(NCc2ccccc2)nc(C(F)F)n1",
    "Activity / %": 5
  },
  {
    "smiles.text": "Cc1ccc(CNc2nc(C)nc(C(F)F)n2)cc1",
    "Activity / %": 3
  },
  {
    "smiles.text": "Cc1nc(NCc2ccc(Br)cc2)nc(C(F)(F)F)n1",
    "Activity / %": 5
  },
  {
    "smiles.text": "Cc1nc(NCc2ccc(Cl)cc2)nc(C(F)(F)F)n1",
    "Activity / %": 3
  },
  {
    "smiles.text": "Cc1nc(NCc2ccccc2)nc(C(F)(F)F)n1",
    "Activity / %": 2
  },
  {
    "smiles.text": "Cc1nc(NCc2ccc([N+](=O)[O-])cc2)nc(C(F)F)n1",
    "Activity / %": 4
  },
  {
    "smiles.text": "Cc1nc(CF)nc(NCc2ccc(Cl)cc2)n1",
    "Activity / %": 3
  }
]

Q: # returns recorded Activity (system: Echinochloa crus-galli) for Cc1nc(NCc2ccc(Cl)cc2)nc(C(F)F)n1
A: 4

Q: # returns recorded Activity (system: Echinochloa crus-galli) for Cc1nc(NCc2cccc(Cl)c2)nc(C(F)F)n1
A: 4

Q: # returns recorded Activity (system: Echinochloa crus-galli) for Cc1nc(NCc2ccc(Br)cc2)nc(C(F)F)n1
A: 4

Q: # returns recorded Activity (system: Echinochloa crus-galli) for Cc1nc(CF)nc(NCc2ccccc2)n1
A: 1

====

tested on: Echinochloa crus-galli; assay: Post-emergence herbicidal activity against Echinochloa crus-galli var. crus-galli at 400 g a.i./10a measured after 3 weeks by foliar application test; type: functional
observable: Activity (%)
The response must be a number in % with no trailing unit.

Example entries begin here.
[
  {
    "smiles.text": "Cc1nc(C)nc(NCc2ccccc2)n1",
    "Activity / %": 0
  },
  {
    "smiles.text": "Cc1nc(NCc2ccc(Br)cc2)nc(C(F)F)n1",
    "Activity / %": 6
  },
  {
    "smiles.text": "Cc1nc(NCc2cccc(Cl)c2)nc(C(F)F)n1",
    "Activity / %": 3
  }
]

Q: Entry under review: Cc1nc(NCc2ccccc2)nc(C(F)F)n1 . Reported Activity?
A: 3

Q: Entry under review: Cc1nc(NCc2ccc(Br)cc2)nc(C(F)(F)F)n1 . Reported Activity?
A: 4

Q: Entry under review: Cc1nc(CF)nc(NCc2ccc(Br)cc2)n1 . Reported Activity?
A: 4

Q: Entry under review: Cc1ccc(CNc2nc(C)nc(C(F)F)n2)cc1 . Reported Activity?
A: 4

Q: Entry under review: Cc1nc(CF)nc(NCc2ccc(Cl)cc2)n1 . Reported Activity?
A: 4

Q: Entry under review: Cc1nc(NCc2ccc([N+](=O)[O-])cc2)nc(C(F)F)n1 . Reported Activity?
A: 4

Q: Entry under review: Cc1nc(NCc2ccc(Cl)cc2)nc(C(F)(F)F)n1 . Reported Activity?
A: 4

Q: Entry under review: Cc1nc(NCc2ccccc2)nc(C(F)(F)F)n1 . Reported Activity?
A: 3

Q: Entry under review: Cc1nc(CF)nc(NCc2ccccc2)n1 . Reported Activity?
A: 0

Q: Entry under review: Cc1nc(NCc2ccc(Cl)cc2)nc(C(F)F)n1 . Reported Activity?
A: 6

====

# reported Activity; entries follow
system: Chenopodium album; assay: Pre-emergence herbicidal activity against Chenopodium album at 400 g a.i./10a measured after 3 weeks by soil application test; format: functional
The response must be a number in % with no trailing unit.

Example entries begin here.
[
  {
    "smiles.text": "Cc1nc(NCc2ccc(Br)cc2)nc(C(F)F)n1",
    "Activity / %": 6
  },
  {
    "smiles.text": "Cc1nc(CF)nc(NCc2ccc(Cl)cc2)n1",
    "Activity / %": 5
  }
]

Now, please, on to the next molecule.
Q: Entry under review: Cc1nc(NCc2cccc(Cl)c2)nc(C(F)F)n1 . Reported Activity?
A: 5

====

# reported Activity; entries follow
system: Amaranthus blitum subsp. oleraceus; assay: Pre-emergence herbicidal activity against Amaranthus blitum subsp. Oleraceus at 400 g a.i./10a measured after 3 weeks by soil application test; format: functional
The response must be a number in % with no trailing unit.

Example entries begin here.
[
  {
    "smiles.text": "Cc1nc(NCc2cccc(Cl)c2)nc(C(F)F)n1",
    "target.of.assay": "Amaranthus blitum subsp. oleraceus",
    "Activity, %": 4
  },
  {
    "smiles.text": "Cc1nc(NCc2ccc(Br)cc2)nc(C(F)(F)F)n1",
    "target.of.assay": "Amaranthus blitum subsp. oleraceus",
    "Activity, %": 5
  },
  {
    "smiles.text": "Cc1nc(NCc2ccc([N+](=O)[O-])cc2)nc(C(F)F)n1",
    "target.of.assay": "Amaranthus blitum subsp. oleraceus",
    "Activity, %": 5
  }
]

Q: # returns recorded Activity (system: Amaranthus blitum subsp. oleraceus) for Cc1ccc(CNc2nc(C)nc(C(F)F)n2)cc1
A: 4

Q: # returns recorded Activity (system: Amaranthus blitum subsp. oleraceus) for Cc1nc(CF)nc(NCc2ccccc2)n1
A: 4

Q: # returns recorded Activity (system: Amaranthus blitum subsp. oleraceus) for Cc1nc(CF)nc(NCc2ccc(Br)cc2)n1
A: 5

====

test system: Chenopodium album; test: Pre-emergence herbicidal activity against Chenopodium album at 400 g a.i./10a measured after 3 weeks by soil application test; assay type: functional
# reported Activity; entries follow
The response must be a number in % with no trailing unit.

[
  {
    "smiles.text": "Cc1nc(NCc2ccc(Br)cc2)nc(C(F)(F)F)n1",
    "quantity.unit": "%",
    "reading": 5
  },
  {
    "smiles.text": "Cc1nc(NCc2ccc(Cl)cc2)nc(C(F)F)n1",
    "quantity.unit": "%",
    "reading": 6
  },
  {
    "smiles.text": "Cc1nc(CF)nc(NCc2ccc(Br)cc2)n1",
    "quantity.unit": "%",
    "reading": 5
  },
  {
    "smiles.text": "Cc1nc(NCc2ccc(Cl)cc2)nc(C(F)(F)F)n1",
    "quantity.unit": "%",
    "reading": 5
  },
  {
    "smiles.text": "Cc1nc(NCc2ccc([N+](=O)[O-])cc2)nc(C(F)F)n1",
    "quantity.unit": "%",
    "reading": 5
  },
  {
    "smiles.text": "Cc1nc(NCc2ccccc2)nc(C(F)F)n1",
    "quantity.unit": "%",
    "reading": 6
  }
]

Q: Entry under review: Cc1ccc(CNc2nc(C)nc(C(F)F)n2)cc1 . Reported Activity?
A: 5

Q: Entry under review: Cc1nc(CF)nc(NCc2ccccc2)n1 . Reported Activity?
A: 5

Q: Entry under review: Cc1nc(NCc2ccccc2)nc(C(F)(F)F)n1 . Reported Activity?
A: 6
